Reported IC50, Prothrombin (Homo sapiens, UniProt P00734).
quantity.measured: IC50 (nM)

compound="CCN(C(=O)C1=CCCC1C(=O)NCc1ccc(C(=N)N)cc1)c1cccc(Cl)c1 (centres undefined)" experimental_result=390
compound="CCN(C(=O)C1=CCCC1C(=O)NCc1ccc(C(=N)N)cc1)c1cccc(F)c1 (centres undefined)" experimental_result=630
compound="N=C(N)c1ccc(CNC(=O)C2CCCC=C2C(=O)N2CCCCC2)cc1 (centres undefined)" experimental_result=38000
compound="CCN(C(=O)C1=CCCC1C(=O)NCc1ccc(C(=N)N)cc1)c1ccccc1F (centres undefined)" experimental_result=350

A. CC1Cc2ccccc2N1C(=O)C1=CCCC1C(=O)NCc1ccc(C(=N)N)cc1 (centres undefined)
B. N=C(N)NCCC[C@H](NC(=O)[C@@H]1CCCN1C(=O)C(N)Cc1ccccc1)C(=O)O (stereo in doubt)
C. COc1ccc(OC)c(N(C(=O)C2=CCCC2C(=O)NCc2ccc(C(=N)N)cc2)C2CCCCC2)c1 (centres undefined)
Hi! Can you put these in order of IC50, lowest number first? Labels, requested order.
B, C, A
(B: 0.017 nM, C: 49 nM, A: 3400 nM)

A. CCN(C(=O)C1=CCCC1C(=O)NCc1ccc(C(=N)N)cc1)c1cc(Cl)ccc1C (centres undefined)
B. N=C(N)c1ccc(CNC(=O)C2=C(C(=O)NC3CCCCC3)CCC2)cc1
Could you check which of A and B has a smaller value for IC50? Write the label of whichever entry you select.
A

I. CCN(C(=O)C1=CCCC1C(=O)NCc1ccc(C(=N)N)cc1)c1cccc(OC)c1 (centres undefined)
II. CCN(C(=O)C1CCC=C1C(=O)NCc1ccc(C(=N)N)cc1)c1cccc(OC)c1 (centres undefined)
III. CCN(C(=O)C1=CCC[C@H]1C(=O)NCc1ccc(C(=N)N)cc1)c1cccc(OC)c1
IV. CCN(C(=O)C1=C(C(=O)NCc2ccc(C(=N)N)cc2)CCC1)c1cccc(OC)c1
V. CCN(C(=O)C1CCC=C1C(=O)NCc1ccc(C(=N)N)cc1)c1ccccc1F (centres undefined)
Order the records by IC50, with each subsequent value no larger than the one before. Labels, requested order.
V, IV, II, I, III

1. CCc1cccc(N(C(=O)C2=CCCC2C(=O)NCc2ccc(C(=N)N)cc2)C2CCCCC2)c1 (centres undefined)
2. N=C(N)c1ccc(CNC(=O)C2CCC=C2C(=O)N2CCCCC2)cc1 (centres undefined)
Could you check which of 1 and 2 has a smaller value for IC50? Write the label of whichever entry you select.
1

###

Reported IC50, Prothrombin (Homo sapiens).
quantity.measured: IC50 (nM)

compound="CCc1cccc(N(CC)C(=O)C2=CCCC2C(=O)NCc2ccc(C(=N)N)cc2)c1 (stereo not drawn)" value_unit=nM experimental_result=270
compound="CCN(C(=O)C1=CCCC1C(=O)NCc1ccc(C(=N)N)cc1)c1ccccc1OC (stereo not drawn)" value_unit=nM experimental_result=250
